B1: C9orf9 (parent)
chain: LTKASLKPRGCSKPPWRPPGGKL

Variants of: B1
PROTOCOL_TEXT: protein stability index of a GFP-peptide fusion (GPS, HEK-293T) (PSI 1-6); higher = more stable;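 also: lentivirally expressed fusions sorted by FACS into six bins by GFP to DsRed ratio, PSI derived from sequencing read proportions per bin multiplied by bin number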
CONDITION_LABEL: c terminus: native
Please enter YES where protein stability index is greater than or equal to 2, and NO where it is lower.

Check out these entries, answers already filled in.
Please check the record L6D and state if its protein stability index is at or above 2.
NO

Please check the record L23M and state if its protein stability index is at or above 2.
YES

Please check the record L1W and state if its protein stability index is at or above 2.
NO

Please check the record L23N and state if its protein stability index is at or above 2.
NO

Please check the record L6H and state if its protein stability index is at or above 2.
NO

New cases:
Please check the record S5E and state if its protein stability index is at or above 2.
NO
